- System: SF-295
- protocol_text: Growth inhibition of human SF295 cells after 48 hrs by sulforhodamine B assay
- Assay type: functional
- assay_conditions: SF-295, 48 h
experimental_endpoint: TGI

Dear reader, for each entry below, please note its TGI.
1. COc1ccc(/C=N/c2nc3[nH]nc(C)n3c(=O)c2S(=O)(=O)NN2C(=O)C(CN3CCOCC3)SC2c2ccc(OC)cc2)cc1 (centres undefined)
2. COc1ccc(/C=N/c2nc3[nH]nc(C)n3c(=O)c2S(=O)(=O)NN2C(=O)C(CN3CCOCC3)SC2c2cccs2)cc1 (centres undefined)
3. COc1ccc(/C=N/c2nc3[nH]nc(C)n3c(=O)c2S(=O)(=O)NN2C(=O)C(CN3CCN(C)CC3)SC2c2ccc(OC)cc2)cc1 (centres undefined)
4. COc1ccc(/C=N/c2nc3[nH]nc(C)n3c(=O)c2S(=O)(=O)NN2C(=O)C(CN3CCN(C)CC3)SC2c2cccs2)cc1 (centres undefined)

["> 100 µM", "> 100 µM", "35.9 µM", "> 100 µM"]

----------
- protocol_text: Growth inhibition of human […] cells after 48 hrs by sulforhodamine B assay
- Format: functional
experimental_endpoint: GI50 (µM)
Numbers only, in µM.

- compound: "COc1ccc(/C=N/c2nc3[nH]nc(C)n3c(=O)c2S(=O)(=O)NN2C(=O)C(CN3CCN(C)CC3)SC2c2ccc(OC)cc2)cc1 (centres undefined)"
  GI50, µM: 14.1
- compound: "COc1ccc(/C=N/c2nc3[nH]nc(C)n3c(=O)c2S(=O)(=O)NN2C(=O)C(CN3CCOCC3)SC2c2cccs2)cc1 (centres undefined)"
  GI50, µM: 3.86
- compound: "COc1ccc(/C=N/c2nc3[nH]nc(C)n3c(=O)c2S(=O)(=O)NN2C(=O)C(CN3CCOCC3)SC2c2ccc(OC)cc2)cc1 (centres undefined)"
  GI50, µM: 16.4

Would you kindly look at the next entry?
Give reported GI50 value for COc1ccc(/C=N/c2nc3[nH]nc(C)n3c(=O)c2S(=O)(=O)NN2C(=O)C(CN3CCN(C)CC3)SC2c2cccs2)cc1 (centres undefined) 2.56

----------
- Tested on: SNB-19
- protocol_text: Growth inhibition of human SNB19 cells after 48 hrs by sulforhodamine B assay
- Format: functional
- assay_conditions: SNB-19, 48 h
experimental_endpoint: TGI

- compound: "COc1ccc(/C=N/c2nc3[nH]nc(C)n3c(=O)c2S(=O)(=O)NN2C(=O)C(CN3CCOCC3)SC2c2ccc(OC)cc2)cc1 (centres undefined)"
  experimental_endpoint: "TGI"
  result: "> 100 µM"
- compound: "COc1ccc(/C=N/c2nc3[nH]nc(C)n3c(=O)c2S(=O)(=O)NN2C(=O)C(CN3CCN(C)CC3)SC2c2ccc(OC)cc2)cc1 (centres undefined)"
  experimental_endpoint: "TGI"
  result: "72.5 µM"
- compound: "COc1ccc(/C=N/c2nc3[nH]nc(C)n3c(=O)c2S(=O)(=O)NN2C(=O)C(CN3CCOCC3)SC2c2cccs2)cc1 (centres undefined)"
  experimental_endpoint: "TGI"
  result: "> 100 µM"

Give reported TGI value for COc1ccc(/C=N/c2nc3[nH]nc(C)n3c(=O)c2S(=O)(=O)NN2C(=O)C(CN3CCN(C)CC3)SC2c2cccs2)cc1 (centres undefined) > 100 µM
